- protocol_description: in vitro
- Type: cell-based
- study_conditions: human
readout_kind: CC50

Item: CCOC(=O)/C=C/[C@H](C[C@@H]1CCNC1=O)NC(=O)[C@@H](CC(=O)[C@@H](NC(=O)c1cc(C)on1)C(C)C)Cc1ccc(F)cc1 | CC50: > 100 µM

====

- measured_on: 3C protein in U87 MG cells (Enterovirus A71, UniProt B9VUU3)
- Sequence (B9VUU3 1549-1731, change not shown): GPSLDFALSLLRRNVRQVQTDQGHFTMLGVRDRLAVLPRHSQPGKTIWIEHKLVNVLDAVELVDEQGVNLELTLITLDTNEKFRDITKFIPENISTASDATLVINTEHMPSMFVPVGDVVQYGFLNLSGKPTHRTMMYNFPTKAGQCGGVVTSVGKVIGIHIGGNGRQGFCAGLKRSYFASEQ
- study_conditions: inhibition of the decrease in cell viability caused by 3C-mRNA transfection; U87 MG cells
- Experimental: Rupintrivir (AG7088) is an effective, selective and irreversible 3C protease inhibitor. […] Finally, the luminescence value of each well was measured using a microplate reader. […] Data analysis: The inhibition rate-concentration curve was fitted to a sigmoidal curve using Origin9.0 software to calculate the half-maximal effective concentration (EC50) of AG7088 against 3C-mRNA. The half-cytotoxic concentration (CC50) of the compound was calculated using the same method.
readout_kind: pIC50
Quick note: pIC50 values are minus log10 of concentrations in mol/L.

Considering CCOC(=O)/C=C/[C@H](C[C@@H]1CCNC1=O)NC(=O)[C@@H](CC(=O)[C@@H](NC(=O)c1cc(C)on1)C(C)C)Cc1ccc(F)cc1 , its pIC50 with 3C protein in U87 MG cells (Enterovirus A71, UniProt B9VUU3) was recorded as 5.94
